molecular target: HLA-B*35:01; assay: IEDB peptide-MHC binding, purified MHC/competitive/radioactivity; filed as Kd, often an IC50 or EC50 that approximates it; bounds were set here for any values at or beyond the usual limits of such assays; details: source organism: SARS coronavirus Tor2
property: pKd
Give bare numbers, as −log10 of the molar value.

Can you look up pKd on HLA-B*35:01 for "KPTTFMLKY" ?
7.38

---

target: HLA-A*02:01; assay: IEDB peptide-MHC binding, purified MHC/direct/fluorescence; filed as Kd, often an IC50 or EC50 that approximates it; bounds were set here for any values at or beyond the usual limits of such assays; details: source organism: Salmonella enterica subsp. enterica serovar Typhimurium
property: pKd
Numbers only, as −log10 of the molar value.

Value lookup for pKd; key = "ATISYRIKL"
6.97

---

target: HLA-A*33:01; assay: IEDB peptide-MHC binding, purified MHC/competitive/radioactivity; filed as Kd, often an IC50 or EC50 that approximates it; bounds were set here for any values at or beyond the usual limits of such assays; conditions: source organism: Dengue virus 1 Brazil/97-11/1997
pKd: −log10 of the molar value.
# if value of pKd reaches 8, tag Criterion met; if it stays below, tag Criterion not met

Does "SMLNIMNRR" have a reported pKd of at least 8?
Criterion not met

Does "NKKPRICTR" have a reported pKd of at least 8?
Criterion not met

Does "MFAVGLLFR" have a reported pKd of at least 8?
Criterion met

Does "DWLEKHGAER" have a reported pKd of at least 8?
Criterion not met

---

target: HLA-A*02:01; assay: IEDB peptide-MHC binding, purified MHC/competitive/fluorescence; filed as Kd, often an IC50 or EC50 that approximates it; bounds were set here for any values at or beyond the usual limits of such assays; settings: source organism: Mycobacterium tuberculosis variant bovis BCG str. Pasteur 1173P2
property: Kd (nM)
One number for each entry, in nM.

Value lookup for Kd; key = "HLTRVGPYL"
2.4

---

molecular target: HLA-A*02:03; assay: IEDB peptide-MHC binding, purified MHC/competitive/radioactivity; filed as Kd, often an IC50 or EC50 that approximates it; bounds were set here for any values at or beyond the usual limits of such assays; conditions: source organism: Trypanosoma cruzi
property: pKd
One number for each entry, as −log10 of the molar value.

Value lookup for pKd; key = "RLLPSLLLLL"
9.04

---

target: HLA-B*08:01; test: IEDB peptide-MHC binding, purified MHC/direct/fluorescence; filed as Kd, often an IC50 or EC50 that approximates it; bounds were set here for any values at or beyond the usual limits of such assays; settings: source organism: Influenza A virus (A/chicken/Hunan/fg/2004(H5N1))
pKd: −log10 of the molar value.
property: pKd

Can you look up pKd on HLA-B*08:01 for "DTVNRTHQY" ?
≤ 4.70

---

target: HLA-A*02:01; experiment: IEDB peptide-MHC binding, purified MHC/competitive/radioactivity; bounds were set here for any values at or beyond the usual limits of such assays; settings: source organism: Homo sapiens
property: pIC50
Numbers only, as −log10 of the molar value.

Value lookup for pIC50; key = "RTFSPTYGL"
6.39

---

target: HLA-A*31:01; test: IEDB peptide-MHC binding, purified MHC/direct/fluorescence; filed as Kd, often an IC50 or EC50 that approximates it; bounds were set here for any values at or beyond the usual limits of such assays; conditions: source organism: Orthohantavirus andesense
property: Kd

Value lookup for Kd; key = "TRDHVNLVL"
≥ 20 µM
